B1: SNAP91 (parent)
chain: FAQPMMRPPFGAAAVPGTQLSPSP

# Variants of: B1
# Assay method text: protein stability index of a GFP-peptide fusion (GPS, HEK-293T) (PSI 1-6); higher = more stable;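 further: lentivirally expressed fusions sorted by FACS into six bins by GFP to DsRed ratio, PSI derived from sequencing read proportions per bin multiplied by bin number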
# Study conditions: c terminus: a fixed tail appended
Property: protein stability index
Give only the figure.

Answered examples (4):
FAQPMMRPPFGARAVPGTQLSPSP [A13R] ... 3.65
FAQPQMRPPFGAAAVPGTQLSPSP [M5Q] ... 3.48
FAQPMMRPPFGGAAVPGTQLSPSP [A12G] ... 3.5
FAQPMMRPPFGAAVVPGTQLSPSP [A14V] ... 2.61

Give its protein stability index value. Item: FAQPMMRPPFGAAAVPGTQLSFSP [P22F]
2.82

// protein stability index lookup, key: FAQPMMRPPFGAAAVPLTQLSPSP [G17L]
3.46
